# Tested on: Mtb (katG del) ATCC 35822
# Protocol summary: microbe, parasite or virus in culture
# Assay type: cell-based
# Protocol conditions: Mycobacterium tuberculosis, ATCC35822, Mtb (katG del) ATCC 35822; mean ± SD, n = 3 well replicates
*1 amine or outer side, *2 acyl side, *3 side chain or, on linkers, in order; H or OH if unused. Where a SMILES comes first, the peptide text is derived from it. [ ]: non-standard residue; d: D form. X1 = C#CCn1cc(C[C@H](N[*:1])C(=O)[*:2])c2ccccc21; NMeLeu(5-OH,4R) = CN[C@@H](C[C@@H](C)CO)C(=O)O; Phe(βR-OMe) = CO[C@H](c1ccccc1)[C@H](N)C(=O)O; Trp(1-Me) = Cn1cc(C[C@H](N)C(=O)O)c2ccccc21; NMeL = CN[C@@H](CC(C)C)C(=O)O; Pra = C#CC[C@H](N)C(=O)O
Quantity name: MIC (µM)

INSERT INTO results (molecule, censor_symbol, measured_value) VALUES
  ('COC(c1ccccc1)C1NC(=O)C(C)NC(=O)C(CC(C)CO)N(C)C(=O)C(Cc2cn(Cc3cn(CCOCCOCCOCCOCCn4cc(Cn5cc(CC6NC(=O)C(C(C)C)NC(=O)C(CC(C)C)N(C)C(=O)C(C(C)C)NC(=O)C(C(OC)c7ccccc7)NC(=O)C(C)NC(=O)C(CC(C)CO)N(C)C6=O)c6ccccc65)nn4)nn3)c3ccccc23)NC(=O)C(C(C)C)NC(=O)C(CC(C)C)N(C)C(=O)C(C(C)C)NC1=O (stereo not shown)', '=', 0.2),
  ('COC(c1ccccc1)C1NC(=O)C(C)NC(=O)C(CC(C)CO)N(C)C(=O)C(Cc2cn(C)c3ccccc23)NC(=O)C(Cc2cn(CCCCCn3cc(CC4NC(=O)C(CC(C)C)N(C)C(=O)C(C(C)C)NC(=O)C(C(OC)c5ccccc5)NC(=O)C(C)NC(=O)C(CC(C)CO)N(C)C(=O)C(Cc5cn(C)c6ccccc56)NC4=O)nn3)nn2)NC(=O)C(CC(C)C)N(C)C(=O)C(C(C)C)NC1=O (stereo not shown)', '=', 0.1),
  ('C#CC[C@@H]1NC(=O)[C@H](CC(C)C)N(C)C(=O)[C@H](C(C)C)NC(=O)[C@H]([C@H](OC)c2ccccc2)NC(=O)[C@H](C)NC(=O)[C@H](C[C@@H](C)CO)N(C)C(=O)[C@H](Cc2cn(C)c3ccccc23)NC1=O [Compound 10] (cyclo(A[Phe(βR-OMe)]V[NMeL][Pra][Trp(1-Me)][NMeLeu(5-OH,4R)]))', '=', 1.6),
  ('NNC(=O)c1ccncc1', '>', 232),
  ('C#CCn1cc(C[C@@H]2NC(=O)[C@H](C(C)C)NC(=O)[C@H](CC(C)C)N(C)C(=O)[C@H](C(C)C)NC(=O)[C@H]([C@H](OC)c3ccccc3)NC(=O)[C@H](C)NC(=O)[C@H](C[C@@H](C)CO)N(C)C2=O)c2ccccc21 [Compound 5] (cyclo(A[Phe(βR-OMe)]V[NMeL]V[X1][NMeLeu(5-OH,4R)]))', '=', 0.8),
  ('CO[C@H]1/C=C/O[C@@]2(C)Oc3c(C)c(O)c4c(O)c(c(/C=N/N5CCN(C)CC5)c(O)c4c3C2=O)NC(=O)/C(C)=C\C=C\[C@H](C)[C@H](O)[C@@H](C)[C@@H](O)[C@@H](C)[C@H](OC(C)=O)[C@@H]1C [Rifampicin, reference compound]', '=', 0.01),
  ('COc1c(N2C[C@@H]3CCCN[C@@H]3C2)c(F)cc2c(=O)c(C(=O)O)cn(C3CC3)c12 [Moxifloxacin, reference compound]', '=', 0.3);
